Test: Aqueous solubility
Format: physicochemical
Details: aqueous medium (not further specified); read-out: Aqueous solubility, concentration
readout.kind: solubility (µM)

>>> observed_measurement("O=C(c1cnn(Cc2ccccc2)c1)N1CCOc2ccccc2C1 [SN-6109]")
47

---

Test: Caco-2 cell-based permeability assay
Format: in vitro ADME
Conditions: human
readout.kind: efflux ratio

>>> observed_measurement("CN1C(=O)C(Cc2c[nH]c3ccccc23)NC1=S (stereo not shown)")
0.36

---

Assay: Mouse pharmacokinetics, i.v.
Assay type: in vivo
Details: plasma, iv, male C57BL/6J mice, 5 mg/kg i.v., read-out: Mouse clearance (in vivo) rate
readout.kind: clearance (mL/min/kg)

>>> observed_measurement("CN1C(=O)C(Cc2c[nH]c3ccccc23)NC1=S (centres unmarked)")
101
>>> observed_measurement("O=C(c1cnn(Cc2ccccc2)c1)N1CCOc2ccccc2C1")
107

---

Reported Tmax is given for each of the following compounds.
Test: Mouse pharmacokinetics, i.v.
Type: in vivo
Details: plasma, iv, male C57BL/6J mice, 5 mg/kg i.v., read-out: Tmax (in vivo)
readout.kind: Tmax (min)

>>> observed_measurement("CN1C(=O)C(Cc2c[nH]c3ccccc23)NC1=S (centres unmarked)")
1.8
>>> observed_measurement("O=C(c1cnn(Cc2ccccc2)c1)N1CCOc2ccccc2C1")
1.8

---

Form field: microsomal CLint (one value per entry).
Test: Human microsomal clearance (in vitro)
Assay type: in vitro ADME
Conditions: microsomes, read-out: Human microsomal clearance (in vitro) rate
readout.kind: microsomal CLint

>>> observed_measurement("CN1C(=O)C(Cc2c[nH]c3ccccc23)NC1=S (centres unmarked)")
"59 µL/min/mg"
>>> observed_measurement("O=C(c1cnn(Cc2ccccc2)c1)N1CCOc2ccccc2C1")
"42 µL/min/mg"

---

Assay: Aqueous solubility
Format: physicochemical
Conditions: read-out: Aqueous solubility, concentration
readout.kind: solubility (µM)

>>> observed_measurement("CN1C(=O)C(Cc2c[nH]c3ccccc23)NC1=S (stereo not shown)")
97

---

Parameter: AUC. Scope: all listed entries.
Test: Mouse pharmacokinetics, i.v.
Type: in vivo
Conditions: plasma, iv, male C57BL/6J mice, 5 mg/kg i.v., read-out: Mouse AUC (in vivo)
readout.kind: AUC (µM·h)

>>> observed_measurement("CN1C(=O)C(Cc2c[nH]c3ccccc23)NC1=S (centres unmarked)")
3.21
>>> observed_measurement("O=C(c1cnn(Cc2ccccc2)c1)N1CCOc2ccccc2C1")
2.34

---

Test system: MDR1
Experiment: MDCK-MDR1 cell-based permeability assay
Type: in vitro ADME
Conditions: dog
readout.kind: efflux ratio

>>> observed_measurement("CN1C(=O)C(Cc2c[nH]c3ccccc23)NC1=S (stereo not shown)")
0.45

---

Experiment: Mouse pharmacokinetics, i.v.
Type: in vivo
Details: plasma, iv, male C57BL/6J mice, 5 mg/kg i.v., read-out: Mouse half-life (in vivo) T1/2 (converted)
readout.kind: half-life

>>> observed_measurement("CN1C(=O)C(Cc2c[nH]c3ccccc23)NC1=S (centres unmarked) [Nec-1, necrostatin-1]")
"26.4 min"
>>> observed_measurement("O=C(c1cnn(Cc2ccccc2)c1)N1CCOc2ccccc2C1 [SN-6109]")
"18.6 min"

---

molecules and their reported Papp B→A
Experiment: MDCK-MDR1 cell-based permeability assay
Type: in vitro ADME
Details: dog, B-A
readout.kind: Papp B→A (×10⁻⁶ cm/s)

>>> observed_measurement("O=C(c1cnn(Cc2ccccc2)c1)N1CCOc2ccccc2C1")
18
>>> observed_measurement("CN1C(=O)C(Cc2c[nH]c3ccccc23)NC1=S (centres unmarked)")
34
